- Test summary: Cytotoxicity against BALB/c mouse J774 cells assessed as reduction in cell viability after 72 hrs by alamarBlue assay
- Type: cell-based
Measured attribute: CC50 at 72 h

[[record]]
molecule = "C[C@@H]1C[C@H]2[C@@H]3CCC4=CC(=O)C=C[C@]4(C)[C@@]3(F)[C@@H](O)C[C@]2(C)[C@@]1(O)C(=O)CO [DEXAMETHASONE]"
data_value = "91.1 µM"

[[record]]
molecule = "CC(/C=N/Nc1ccc([N+](=O)[O-])cc1)=N\\NC(=O)c1ccccc1Nc1ccccc1"
data_value = "> 100 µM"

[[record]]
molecule = "CC(/C=N/Nc1ccc([N+](=O)[O-])cc1)=N\\NC(=O)c1ccccc1F"
data_value = "> 100 µM"

[[record]]
molecule = "CC(/C=N/Nc1ccc([N+](=O)[O-])cc1)=N\\NC(=O)c1ccc(C(F)(F)F)cc1"
data_value = "78.7 µM"

[[record]]
molecule = "CC(/C=N/Nc1ccc([N+](=O)[O-])cc1)=N\\NC(=O)c1ccccc1"
data_value = "> 100 µM"


Query :: # query: CC50 at 72 h of entry CC(/C=N/Nc1ccc([N+](=O)[O-])cc1)=N\NC(=O)c1ccc(N(C)C)cc1
Result :: > 100 µM

Query :: Now this one: CC(/C=N/Nc1ccc([N+](=O)[O-])cc1)=N\NC(=O)c1cccc(C)c1
Result :: > 100 µM

Query :: Now this one: CC(/C=N/Nc1ccc([N+](=O)[O-])cc1)=N\NC(=O)c1ccc(O)cc1
Result :: 51 µM

Query :: Now this one: CC(/C=N/Nc1ccc([N+](=O)[O-])cc1)=N\NC(=O)c1ccc([N+](=O)[O-])cc1
Result :: > 100 µM

Query :: Now this one: CC(/C=N/Nc1ccc([N+](=O)[O-])cc1)=N\NC(=O)c1ccccc1C
Result :: > 100 µM

Query :: Now this one: CC(/C=N/Nc1ccc([N+](=O)[O-])cc1)=N\NC(=O)c1ccc(N)cc1
Result :: 75 µM
